# target: HIV Env of isolate 0330.v4.c3 (clade A) (HIV)
# procedureSummary: cell-based or functional assay
endpointLabel: IC50 (µg/ml) with constrains (µg/mL)

binder | endpointLabel | unitDescriptor | observedValue
ePGDM9 (antibody, V domains shown) VH: QAQLVQSGPEVRKPGTSVKVSCKNPGNTLTTYDLHWVRQVPGQGLQWMGWISHEGDKKVIVERFKAKVTIDWDRSTNTAYLQLSGLTSEDTAVYYCAKGSKHRLRDYALYDEDGALNWAVDVDYLANLEFWGQGTAVTVSS VL: DIVLTQSPLSLSVTPGESASISCKSSQSLIHGDRNNYLAWYVQKPGRSPQLLIDLASERASGVPDRFSGSGSRKDFTLKISRVETEDVGTYYCMQGRESPWTFGQGTKVDIK | IC50 (µg/ml) with constrains | µg/mL | 0.003
PGDM1400 (antibody, V domains shown) VH: QVHLTQSGPEVRKPGTSVKVSCKAPGNTLKTYDLHWVRSVPGQGLQWMGWISHEGDKKVIVERFKAKVTIDWDRSTNTAYLQLSGLTSGDTAVYYCAKGSKHRLRDYALYDDDGALNWAVDVDYLSNLEFWGQGTAVTVSS VL: DFVLTQSPHSLSVTPGESASISCKSSHSLIHGDRNNYLAWYVQKPGRSPQLLIYLASSRASGVPDRFSGSGSDKDFTLKISRVETEDVGTYYCMQGRESPWTFGQGTKVDIK | IC50 (µg/ml) with constrains | µg/mL | 0.004
ePGDM5 (antibody, V domains shown) VH: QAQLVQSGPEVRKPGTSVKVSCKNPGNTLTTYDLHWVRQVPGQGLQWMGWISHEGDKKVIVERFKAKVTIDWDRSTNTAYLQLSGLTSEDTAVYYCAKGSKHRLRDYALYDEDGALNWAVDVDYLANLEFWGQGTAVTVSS VL: DFVLTQSPLSLSVTPGESASISCKSDHSLQHGDRNNYLAWYVQKPGRSPQLLIDLASERASGVPDRFSGSGSRKDFTLKIDRVEAEDVGTYYCMQGRESPWTFGQGTKVDIK | IC50 (µg/ml) with constrains | µg/mL | 0.003
ePGDM13 (antibody, V domains shown) VH: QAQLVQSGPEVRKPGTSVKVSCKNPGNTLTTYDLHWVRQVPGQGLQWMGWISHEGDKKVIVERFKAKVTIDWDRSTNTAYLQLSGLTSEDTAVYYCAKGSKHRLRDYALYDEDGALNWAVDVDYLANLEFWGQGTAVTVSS VL: DIVLTQSPLSLSVTPGESASISCKSSHSLQHGDRNNYLAWYVQKPGRSPQLLLDLASERASGVPDRFSGSGSEKDFTLKISRVETEDVGTYYCMQGRESPWTFGQGTKVDIK | IC50 (µg/ml) with constrains | µg/mL | 0.002
